Where these numbers come from: patent US20230233569A1

# maps each entry to its pIC50
- test-target: KRAS G12V (Homo sapiens, UniProt P01116+P62937, G12V)
- Sequence (P01116 1-169 isoform P01116-2 G12V limits assumed, one chain of several): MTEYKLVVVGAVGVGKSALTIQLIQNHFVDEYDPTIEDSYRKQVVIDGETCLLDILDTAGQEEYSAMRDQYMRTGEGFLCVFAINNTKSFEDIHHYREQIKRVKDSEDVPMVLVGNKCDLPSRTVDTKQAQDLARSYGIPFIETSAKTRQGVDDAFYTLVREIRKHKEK
- assay-info: Ras-Raf disruption / FRET / MOA assay (BRAF RBD)
- Format: biochemical
- measurement-conditions: Ras-Raf disruption, with Cyclophilin A; read-out: KRAS G12V FRET data IC50
pIC50: −log10 of the molar value.
readout-type: pIC50

| compound | test-target | readout-type | reported-result |
| --- | --- | --- | --- |
| CCn1c(-c2cccnc2[C@H](C)OC)c2c3cc(ccc31)-c1cccc(c1)C[C@H](NC(=O)[C@H](C(C)C)N(C)C(=O)[C@H]1CC[C@H](N=C=NC(C)C)C1)C(=O)N1CCC[C@H](N1)C(=O)OCC(C)(C)C2 | KRAS G12V (Homo sapiens, UniProt P01116+P62937, G12V) | pIC50 | 5.00 to 6.00 |
| CCn1c(-c2cccnc2[C@H](C)OC)c2c3cc(ccc31)-c1csc(n1)C[C@H](NC(=O)[C@H](C(C)C)N(C)C(=O)N1CC[C@@H](N(C)C(=O)[C@H]3CN3)C1)C(=O)N1CCC[C@H](N1)C(=O)OCC(C)(C)C2 (atropisomer, axis not shown) | KRAS G12V (Homo sapiens, UniProt P01116+P62937, G12V) | pIC50 | 6.00 to 7.00 |
| CCn1c(-c2cccnc2[C@H](C)OC)c2c3cc(ccc31)-c1cc(O)cc(c1)C[C@H](NC(=O)[C@H](C(C)C)N1CCC3(CCN(C(=O)[C@H]4CN4)C3)C1=O)C(=O)N1CCC[C@H](N1)C(=O)OCC(C)(C)C2 (stereo partly drawn) | KRAS G12V (Homo sapiens, UniProt P01116+P62937, G12V) | pIC50 | 7.00 to 8.00 |
| CCn1c(-c2cccnc2[C@H](C)OC)c2c3cc(ccc31)-c1cc(O)cc(c1)C[C@H](NC(=O)[C@H](C(C)C)N(C)C(=O)CN(C)S(=O)(=O)[C@@H]1CN1C)C(=O)N1CCC[C@H](N1)C(=O)OCC(C)(C)C2 (single isomer, unassigned) | KRAS G12V (Homo sapiens, UniProt P01116+P62937, G12V) | pIC50 | 6.00 to 7.00 |
| CCn1c(-c2cccnc2[C@H](C)OC)c2c3cc(ccc31)-c1cc(O)cc(c1)C[C@H](NC(=O)[C@H](C(C)C)N(C)C(=O)N1C[C@@H]3[C@H]1CCN3C(=O)[C@H]1CN1)C(=O)N1CCC[C@H](N1)C(=O)OCC(C)(C)C2 (atropisomer, axis not shown) | KRAS G12V (Homo sapiens, UniProt P01116+P62937, G12V) | pIC50 | 6.00 to 7.00 |
| CCn1c(-c2cnccc2COC)c2c3cc(ccc31)-c1cccc(c1)C[C@H](NC(=O)[C@H](C(C)C)N(C)C(=O)CCN=C=NCc1ccccc1C)C(=O)N1CCC[C@H](N1)C(=O)OCC(C)(C)C2 | KRAS G12V (Homo sapiens, UniProt P01116+P62937, G12V) | pIC50 | < 5.00 |
| CCn1c(-c2cccnc2[C@H](C)OC)c2c3cc(ccc31)-c1cc(O)cc(c1)C[C@H](NC(=O)[C@H](C(C)C)N(C)C(=O)N1CCCN(C(=O)[C@H]3CN3)CC1)C(=O)N1CCC[C@H](N1)C(=O)OCC(C)(C)C2 (atropisomer, axis not shown) | KRAS G12V (Homo sapiens, UniProt P01116+P62937, G12V) | pIC50 | 7.00 to 8.00 |
| CCn1c(-c2cccnc2[C@H](C)OC)c2c3cc(ccc31)-c1cc(O)cc(c1)C[C@H](NC(=O)[C@H](C(C)C)N(C)C(=O)[C@]1(F)CCN(C(=O)[C@@H]3CN3)C1)C(=O)N1CCC[C@H](N1)C(=O)OCC(C)(C)C2 (atropisomer, axis not shown) | KRAS G12V (Homo sapiens, UniProt P01116+P62937, G12V) | pIC50 | 6.00 to 7.00 |
| CCn1c(-c2cccnc2[C@H](C)OC)c2c3cc(ccc31)-c1cc(O)cc(c1)C[C@H](NC(=O)[C@H](C(C)C)N(C)C(=O)[C@@H]1CCCN(C(=O)[C@H]3CN3)C1)C(=O)N1CCC[C@H](N1)C(=O)OCC(C)(C)C2 (atropisomer, axis not shown) | KRAS G12V (Homo sapiens, UniProt P01116+P62937, G12V) | pIC50 | 6.00 to 7.00 |
| CCn1c(-c2cnccc2COC)c2c3cc(ccc31)-c1cccc(c1)C[C@H](NC(=O)[C@H](C(C)C)N(C)C(=O)CCN=C=NCc1ccc(OC)cc1OC)C(=O)N1CCC[C@H](N1)C(=O)OCC(C)(C)C2 | KRAS G12V (Homo sapiens, UniProt P01116+P62937, G12V) | pIC50 | < 5.00 |
| CCn1c(-c2cccnc2[C@H](C)OC)c2c3cc(ccc31)-c1cccc(c1)C[C@H](NC(=O)[C@H](C(C)C)N(C)C(=O)[C@H]1C[C@H](N=C=NCc3ccccc3OC)C1)C(=O)N1CCC[C@H](N1)C(=O)OCC(C)(C)C2 | KRAS G12V (Homo sapiens, UniProt P01116+P62937, G12V) | pIC50 | 5.00 to 6.00 |
| CCn1c(-c2cccnc2[C@H](C)OC)c2c3cc(ccc31)-c1csc(n1)C[C@H](NC(=O)[C@H](C(C)C)N(C)C(=O)N(C)CC1CN(C(=O)[C@H]3CN3)C1)C(=O)N1CCC[C@H](N1)C(=O)OCC(C)(C)C2 (atropisomer, axis not shown) | KRAS G12V (Homo sapiens, UniProt P01116+P62937, G12V) | pIC50 | 6.00 to 7.00 |
| CCn1c(-c2cccnc2[C@H](C)OC)c2c3cc(ccc31)-c1cc(O)cc(c1)C[C@H](NC(=O)[C@H](C(C)C)N(C)C(=O)N1CCCN(C(=O)[C@@H]3CN3)CC1)C(=O)N1CCC[C@H](N1)C(=O)OCC(C)(C)C2 | KRAS G12V (Homo sapiens, UniProt P01116+P62937, G12V) | pIC50 | 7.00 to 8.00 |
| CCn1c(-c2cccnc2[C@H](C)OC)c2c3cc(ccc31)-c1csc(n1)C[C@H](NC(=O)[C@H](C(C)C)N(C)C(=O)N1CC(N(C)C(=O)[C@@H]3CN3)C1)C(=O)N1CCC[C@H](N1)C(=O)OCC(C)(C)C2 (atropisomer, axis not shown) | KRAS G12V (Homo sapiens, UniProt P01116+P62937, G12V) | pIC50 | 6.00 to 7.00 |
| CCn1c(-c2cccnc2[C@H](C)OC)c2c3cc(ccc31)-c1cc(O)cc(c1)C[C@H](NC(=O)[C@H](C(C)C)N(C)C(=O)[C@H]1C[C@@H]3N[C@@H]3C1)C(=O)N1CCC[C@H](N1)C(=O)OCC(C)(C)C2 (atropisomer, axis not shown) | KRAS G12V (Homo sapiens, UniProt P01116+P62937, G12V) | pIC50 | 6.00 to 7.00 |

====

Collected pIC50 values appear next to each entry.
- test-target: NRAS Q61K (Homo sapiens, UniProt P01111+P62937, Q61K)
- Sequence (P01111 whole entry Q61K, one chain of several): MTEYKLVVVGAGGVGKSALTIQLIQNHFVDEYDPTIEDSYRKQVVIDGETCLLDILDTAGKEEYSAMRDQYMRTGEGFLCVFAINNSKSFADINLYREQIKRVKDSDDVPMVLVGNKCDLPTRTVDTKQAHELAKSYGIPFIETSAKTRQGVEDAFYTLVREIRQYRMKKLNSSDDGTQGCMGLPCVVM
- assay-info: Ras-Raf disruption / FRET / MOA assay (BRAF RBD)
- Type: biochemical
pIC50: −log10 of the molar value.

| compound | pIC50 |
| --- | --- |
| CCn1c(-c2cccnc2[C@H](C)OC)c2c3cc(ccc31)-c1cc(O)cc(c1)C[C@H](NC(=O)[C@H](C(C)C)N(C)C(=O)CN(C)C(=O)[C@H]1CN1CCCN1CCOC1=O)C(=O)N1CCC[C@H](N1)C(=O)OCC(C)(C)C2 (some centres unmarked) | 6.00 to 7.00 |
| CCn1c(-c2cccnc2[C@H](C)OC)c2c3cc(ccc31)-c1cc(O)cc(c1)C[C@H](NC(=O)[C@H](C(C)C)N(C)C(=O)CN(C)C(=O)[C@@H]1CN1C1COC1)C(=O)N1CCC[C@H](N1)C(=O)OCC(C)(C)C2 (some centres unmarked) | 6.00 to 7.00 |

====

// reported IC50 per item
- test-target: KRAS G13D (Homo sapiens, UniProt P01116+P62937, G13D)
- Sequence (P01116 1-169 isoform P01116-2 G13D limits assumed): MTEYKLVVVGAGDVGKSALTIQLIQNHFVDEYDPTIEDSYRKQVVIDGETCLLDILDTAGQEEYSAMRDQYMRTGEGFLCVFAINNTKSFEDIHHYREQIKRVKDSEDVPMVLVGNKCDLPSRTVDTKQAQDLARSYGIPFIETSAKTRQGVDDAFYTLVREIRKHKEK
- Sequence (P62937 whole entry): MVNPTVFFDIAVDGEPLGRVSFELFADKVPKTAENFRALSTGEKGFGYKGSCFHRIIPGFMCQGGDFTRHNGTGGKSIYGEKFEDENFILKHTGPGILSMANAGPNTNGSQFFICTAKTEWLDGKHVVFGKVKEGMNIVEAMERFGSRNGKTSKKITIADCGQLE
- assay-info: Disruption of BRAF RBD interaction with Ras (FRET / MOA assay, with Cyclophilin A)
- Format: biochemical
- measurement-conditions: KRAS G13D; read-out: KRAS G13D FRET data IC50

| compound | IC50 |
| --- | --- |
| CCn1c(-c2cccnc2[C@H](C)OC)c2c3cc(ccc31)-c1cc(O)cc(c1)C[C@H](NC(=O)[C@H](C(C)C)N(C)C(=O)[C@@H]1OC[C@@H]3CCC[C@@H]31)C(=O)N1CCC[C@H](N1)C(=O)OCC(C)(C)C2 [Example A407] | 0.01 to 0.1 µM |
| CCn1c(-c2cccnc2[C@H](C)OC)c2c3cc(ccc31)-c1csc(n1)C[C@H](NC(=O)[C@H](C(C)C)N(C)C(=O)[C@H]1CCCO1)C(=O)N1CCC[C@H](N1)C(=O)OCC(C)(C)C2 [Example A238] | 1 to 10 µM |
